Origin of the recorded values: patent US8735444B2

# assayText: Spectral properties of the fluorinated rhodamines (absorption, emission, quantum yield, lifetime)
# Assay type: physicochemical
# measurementConditions: aqueous buffer at pH 7
quantityKind: ABSORPTION λMAX (nm)
Express the result in nm but write the number alone.

Query: ABSORPTION λMAX; subject: Nc1cc2c(cc1F)C1(OC(=O)c3ccccc31)c1cc(F)c(N)cc1O2 494

Query: ABSORPTION λMAX; subject: CN(C)c1cc2c(cc1F)C1(OC(=O)c3ccccc31)c1cc(F)c(N(C)C)cc1O2 554

Query: ABSORPTION λMAX; subject: CN(CCC(=O)O)C(=O)c1ccccc1-c1c2ccc(=NCC(F)(F)F)c(S(=O)(=O)O)c-2oc2c(S(=O)(=O)O)c(NCC(F)(F)F)ccc12 [Compound 16a] 512

Query: ABSORPTION λMAX; subject: CN(CCC(=O)O)C(=O)c1ccccc1-c1c2ccc(=NCC(F)(F)F)cc-2oc2cc(NCC(F)(F)F)ccc12.Cl [Compound 14a] 510

Query: ABSORPTION λMAX; subject: Nc1c(F)cc2c(c1S(=O)(=O)O)Oc1c(cc(F)c(N)c1S(=O)(=O)O)C21OC(=O)c2ccccc21 488

Query: ABSORPTION λMAX; subject: O=C(O)c1ccc2c(c1)C1(OC2=O)c2ccc(NCC(F)(F)F)cc2Oc2cc(NCC(F)(F)F)ccc21 [15 (42-COOH)] 501

Query: ABSORPTION λMAX; subject: O=C1OC2(c3cc(F)c(NCC(F)(F)F)cc3Oc3cc(NCC(F)(F)F)c(F)cc32)c2ccccc21 494
